# target-entity: human Claudin18.2 (human)
# measurement-notes: cell-based or functional assay
value-kind: CDC % Relative activity (%)
A number alone suffices; assume %.

Example entries begin here.
binder | CDC % Relative activity / %
257B1G9 (antibody, V domains shown) VH: QAYLQQSGAELVRSGASVKMSCKASGYTFTSHNMHWVKQTPGQGLEWIGYIYPGNGGTNYNQKFKGKATLTADTSSSTAYMQISSLTSEDSAVYFCTRDYYGNSFAYWGQGTLVTVSA VL: DIVMTQSPSSLTERAGERVSMSCKSSQSLFNSGNQKNYLTWYQQKPGQPPKLLIYWASTRESGVPDRFTGSGSGTDFTLTISSVQAEDLAVYYCQNDYRYPFTFGAGTKLELK | 487
420H3H9 (antibody, V domains shown) VH: DVQLVESGGGLVQPGGSRKLSCAASGFTFSSFGMHWVRQAPEKGLEWVAYISSGSSTIYYAHSVKGRFTISRDNPKNTLFLQMTSLGSEDTAMYYCARFYYGNSFAYWGQGTLVTVSA VL: DIVMTQSPSSLTVTAGEKVTLSCKSSQSLLNSGNQKNYLTWYQQKPGQPPKMLIYWASTRESGVPDRFTGSGSGTDFTLTISSVQAEDLADYYCQNAYTYPLTFGAGTRLELK | 458
409D1A7 (antibody, V domains shown) VH: DVQLVESGGGLVQPGGSRKLSCAASGFTFSGFGMHWIRQTPEKGLEWVAYISSGSRPIYYADTVKGRFTISRDNPKNTLFLHMTSLRSEDTAMYFCARFYYGNSFDHWGQGTLVTVSA VL: DIVMTQSPSFLTVTAGEKVTMNCKSSQSLLNSGNQRNYLTWYQQKPGQPPKLLIYWASTRESGVPDRFTGSGSGTDFTLTISSVQAEDLALYYCQNAYSFPLTFGAGTKLELN | 33.5
266B11F7 (antibody, V domains shown) VH: QVQMKESGPGLVAPSQSLSITCTVSGFSLTTYGVTWVRQPPGKGLEWLGVIWGDGSTNYHSALTSRLRISKDKSKSQVFLKLSSLQTDDTATYYCAKPGRGNALDYWGQGTSVTVSS VL: DIVMTQSPSSLTVTAGEKVTMRCKSSQSLLNSGNQKNYLTWYQQKPGQPPKLLVYWASTRESGVPDRFTGSGSGTDFTLTVSSVQAEDLAVYYCQNDYIFPLTFGAGTKLELK | 97.4

Shifting focus to the binder that follows.
Ask | For the binder 217D9G2 (antibody, V domains shown) VH: QAYLQQSGAELVRSGASVKMSCKASGFTFTSYNIHWVKQTPGQGLEWIGYISPGNGGSNYNLNFKDKATLTAATSSTTAYMQISSLTSEDSAVYFCATGRGFAYWGQGTLVTVSA VL: DIVMTQSPSSLTVTPGEKVTMSCRSSQSLFNSGNQKNYLIWYQQKPGQPPKLLIYRASTRDSGVPDRFTGSGSGTDFTLTISNVQAEDLAVYYCQNDYSYPLTFGAGTKLELK , what CDC % Relative activity is on record?
Reply | 707
